subjectOfTest: mGluR4 (Homo sapiens)
testDetails: mGlu4 PAM potentiation assay, CHO cells transfected with human mGluR4, Ca2+-sensitive dye fluorescence
pEC50: −log10 of the molar value.
propertyMeasured: pEC50

Worked cases, pEC50 given:
compound	pEC50
CO[C@@H](C)COc1nccc2cc(NC(=O)c3ncccc3O)ccc12 [Compound 53]	6.61
CC1(COc2nccc3cc(NC(=O)c4ncccc4N)ccc23)CCOCC1 [Compound 32]	6.49
O=C(Nc1cnc2c(OCC3CCOCC3)nccc2c1)c1ccccn1 [Compound 120]	6.48
CC1(C)CC(Oc2nccc3cc(NC(=O)c4ncccc4O)ccc23)CCO1 (stereo not drawn) [Compound 25]	6.83
Cc1ccoc1C(=O)Nc1ccc2c(OCC3CCOCC3)nccc2c1 [Compound 111]	6.91
Nc1cccnc1C(=O)Nc1ccc2c(OCC3COCCO3)ncc(F)c2c1 (stereo not drawn) [Compound 68]	7.04

I. O=C(Nc1cc(F)c2c(OCC3CCOCC3)nccc2c1)c1ccccn1 [Compound 94]
II. CC1(C)CC(COc2nccc3cc(NC(=O)c4ccccn4)ccc23)CO1 (stereo not drawn) [Compound 48]
Request: # returns the entry with the larger pEC50; inputs I and II Answer by stating the label of the chosen item.
Response: I
(I: 7.42, II: 6.34)

---

subjectOfTest: UniProtKB Q14833
testDetails: mGlu4 PAM potentiation assay, CHO cells transfected with human mGluR4, Ca2+-sensitive dye fluorescence
propertyMeasured: EC50 (nM)

Worked cases, EC50 given:
molecule	unitsText	testValue
O=C(Nc1ccc2c(OCC3CCOC3)nccc2c1)c1ccc(O)cn1 (stereo not drawn)	nM	65.9
COCCOc1nccc2cc(NC(=O)c3ncccc3O)ccc12	nM	502

a. CC(C)OCCOc1nccc2cc(NC(=O)c3ncccc3N)ccc12
b. Nc1cccnc1C(=O)Nc1cnc2c(OCC3CCOCC3)nccc2c1
c. O=C(Nc1ccc2c(OC3CCOCC3)nccc2c1)c1ccccn1
Request: Order field: EC50 | Direction: descending (largest first) Reply format: the labels, ordered as requested.
Response: c, a, b
(c: 411 nM, a: 286 nM, b: 116 nM)

a. Nc1cccnc1C(=O)Nc1ccc2c(Oc3ccncc3)nccc2c1
b. O=C(Nc1ccc2c(OCC3COCCO3)nccc2c1)c1cccc(F)n1 (stereo not drawn)
c. O=C(Nc1cc(F)c2c(OCC3CCOC3)nccc2c1)c1cccc(F)n1 (stereo not drawn)
Request: Could you please order the items by EC50, going from the lowest number to the highest? Reply format: the labels, ordered as requested.
Response: c, b, a
(c: 129 nM, b: 216 nM, a: 394 nM)

---

subjectOfTest: mGluR4 (Homo sapiens, UniProt Q14833)
Sequence (Q14833 33-912 limits assumed): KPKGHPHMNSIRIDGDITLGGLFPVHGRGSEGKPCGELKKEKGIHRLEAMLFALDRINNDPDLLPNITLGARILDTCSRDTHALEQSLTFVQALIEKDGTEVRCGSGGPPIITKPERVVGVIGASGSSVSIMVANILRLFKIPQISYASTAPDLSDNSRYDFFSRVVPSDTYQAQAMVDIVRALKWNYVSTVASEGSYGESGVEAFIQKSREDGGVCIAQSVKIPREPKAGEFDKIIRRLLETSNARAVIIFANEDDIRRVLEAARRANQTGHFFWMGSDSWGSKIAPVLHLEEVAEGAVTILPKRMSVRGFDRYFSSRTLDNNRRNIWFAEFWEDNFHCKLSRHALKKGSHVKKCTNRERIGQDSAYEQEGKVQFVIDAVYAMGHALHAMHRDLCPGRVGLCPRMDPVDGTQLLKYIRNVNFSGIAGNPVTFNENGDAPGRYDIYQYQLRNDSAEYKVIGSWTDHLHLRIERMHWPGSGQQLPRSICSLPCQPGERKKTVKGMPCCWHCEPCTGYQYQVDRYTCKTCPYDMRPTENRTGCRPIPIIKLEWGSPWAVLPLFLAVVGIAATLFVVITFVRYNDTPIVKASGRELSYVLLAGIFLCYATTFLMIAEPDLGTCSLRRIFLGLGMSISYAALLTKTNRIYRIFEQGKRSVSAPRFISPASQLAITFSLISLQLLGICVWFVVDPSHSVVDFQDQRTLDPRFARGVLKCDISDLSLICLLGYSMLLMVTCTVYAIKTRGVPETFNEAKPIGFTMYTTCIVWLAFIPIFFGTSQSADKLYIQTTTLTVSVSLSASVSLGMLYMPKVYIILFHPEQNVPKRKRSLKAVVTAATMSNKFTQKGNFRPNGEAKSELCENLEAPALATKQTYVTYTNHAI
testDetails: mGlu4 PAM potentiation assay, CHO cells transfected with human mGluR4, Ca2+-sensitive dye fluorescence
propertyMeasured: EC50 (nM)

Worked cases, EC50 given:
compound	propertyMeasured	unitsText	testValue
Nc1cccnc1C(=O)Nc1cc(F)c2c(OCC3CCOCC3)nccc2c1	EC50	nM	106
CC1(COc2nccc3cc(NC(=O)c4ccccn4)ccc23)CCOCC1	EC50	nM	246
CO[C@H](C)COc1nccc2cc(NC(=O)c3ncccc3N)ccc12	EC50	nM	152
CC1COCC1COc1nccc2cc(NC(=O)c3ccccn3)ccc12 (stereo not shown)	EC50	nM	339
O=C(Nc1ccc2c(OCC3CCOC3)nccc2c1)c1nccs1 (stereo not shown)	EC50	nM	210
O=C(Nc1ccc2c(OCC3CCOC3)nccc2c1)c1ncccc1F (stereo not shown)	EC50	nM	262
Nc1cccnc1C(=O)Nc1ccc2c(OC[C@H]3CCOC3)nccc2c1	EC50	nM	63
O=C(Nc1ccc2c(OCC3CCOCC3)ncc(F)c2c1)c1ccccn1	EC50	nM	144

I. O=C(Nc1cc(F)c2c(OCC3CCOC3)nccc2c1)c1nc(F)ccc1F (stereo not shown)
II. Nc1cccnc1C(=O)Nc1ccc2c(OC3CCOCC3F)nccc2c1 (stereo not shown)
Request: Compare reported EC50 values for I and II . Which is lower? Answer by stating the label of the chosen item.
Response: II
(II: 83.6 nM, I: 172 nM)

A. O=C(Nc1ccc2c(OCC3CCOCC3)ncc(F)c2c1)c1ncccc1O
B. CC(C)(C)OCCOc1nccc2cc(NC(=O)c3ncccc3N)ccc12
Request: # returns the entry with the larger EC50; inputs A and B Answer by stating the label of the chosen item.
Response: B
(B: 794 nM, A: 246 nM)

A. O=C(Nc1cc(F)c2c(OCC3COCCO3)nccc2c1)c1ncccc1F (stereo not shown)
B. Nc1cccnc1C(=O)Nc1ccc2c(OC3CCOCC3)nccc2c1
C. O=C(Nc1ccc2c(OC3CCOCC3F)nccc2c1)c1ncccc1O (stereo not shown)
D. Nc1cccnc1C(=O)Nc1ccc2c(OCC3COCCO3)nccc2c1 (stereo not shown)
Request: Order field: EC50 | Direction: descending (largest first) Reply format: the labels, ordered as requested.
Response: B, A, C, D
